System Under Test: Rap guanine nucleotide exchange factor 4 (Mus musculus)
Sequence (Q9EQZ6 whole entry): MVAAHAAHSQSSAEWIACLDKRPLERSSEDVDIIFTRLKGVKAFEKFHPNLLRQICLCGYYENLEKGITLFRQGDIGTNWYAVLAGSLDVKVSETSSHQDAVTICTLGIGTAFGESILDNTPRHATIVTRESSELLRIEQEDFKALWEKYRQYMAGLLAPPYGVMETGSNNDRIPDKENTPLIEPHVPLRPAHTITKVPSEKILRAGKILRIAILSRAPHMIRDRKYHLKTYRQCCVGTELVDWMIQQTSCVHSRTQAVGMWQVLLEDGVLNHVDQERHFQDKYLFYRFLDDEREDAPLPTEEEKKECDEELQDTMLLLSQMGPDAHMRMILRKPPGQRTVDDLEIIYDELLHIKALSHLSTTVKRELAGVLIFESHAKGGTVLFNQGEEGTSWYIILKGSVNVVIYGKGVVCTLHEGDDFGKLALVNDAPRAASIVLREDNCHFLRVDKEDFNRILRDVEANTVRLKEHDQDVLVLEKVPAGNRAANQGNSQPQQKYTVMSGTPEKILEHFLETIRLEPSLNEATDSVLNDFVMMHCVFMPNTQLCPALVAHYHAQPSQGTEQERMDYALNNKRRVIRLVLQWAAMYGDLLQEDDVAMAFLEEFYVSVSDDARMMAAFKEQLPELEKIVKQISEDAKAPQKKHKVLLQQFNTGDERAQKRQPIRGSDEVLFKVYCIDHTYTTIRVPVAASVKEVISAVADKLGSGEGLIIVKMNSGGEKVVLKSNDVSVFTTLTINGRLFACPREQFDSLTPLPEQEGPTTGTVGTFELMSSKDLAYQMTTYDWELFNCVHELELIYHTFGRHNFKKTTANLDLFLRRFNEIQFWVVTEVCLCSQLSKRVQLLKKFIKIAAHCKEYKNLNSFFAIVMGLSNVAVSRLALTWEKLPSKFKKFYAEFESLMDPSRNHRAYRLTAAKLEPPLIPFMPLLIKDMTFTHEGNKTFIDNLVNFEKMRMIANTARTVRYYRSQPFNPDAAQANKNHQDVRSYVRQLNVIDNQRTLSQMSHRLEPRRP
Protocol Notes: Displacement of 8-NBD-cAMP from mouse recombinant EPAC2 by fluorescence assay
Condition Description: read-out: IC50
Measured Quantity: IC50

Form: molecule = CC(C)(C)c1cc(C(=O)/C(C#N)=N/Nc2ccc(Cl)c(F)c2)no1 ; IC50 = 4.3 µM

Form: molecule = CC(C)(C)c1cc(C(=O)/C(C#N)=N/Nc2cc(C(F)(F)F)cc(C(F)(F)F)c2)no1 ; IC50 = 6.4 µM

Form: molecule = CC(C)(C)c1cc(C(=O)/C(C#N)=N/Nc2cccc(C#N)c2)no1 ; IC50 = 67.8 µM

Form: molecule = N#C/C(=N\Nc1cccc(Cl)c1)C(=O)c1cc(C2CCCCC2)on1 ; IC50 = 11.3 µM

Form: molecule = CC(C)(C)c1cc(C(=O)/C(C#N)=N/Nc2cc(F)cc(Cl)c2)no1 ; IC50 = 2.5 µM

====

System Under Test: Rap guanine nucleotide exchange factor 4 (Mus musculus)
Protocol Notes: Displacement of 8-NBD-cAMP from mouse recombinant EPAC2 by fluorescence assay
Measured Quantity: IC50

Example results:
Form: compound = CC(C)(C)c1cc(C(=O)N/N=C/c2cccc(Cl)c2)no1 ; IC50 = Not Active

Form: compound = CC(C)(C)c1cc(C(=O)Nc2cccc(Cl)c2)no1 ; IC50 = Not Active

Form: compound = N#C/C(=N\Nc1cc(Cl)c(Cl)c(Cl)c1)C(=O)c1cc(-c2ccccc2)on1 ; IC50 = Not Active

Form: compound = COc1cccc(N/N=C(\C#N)C(=O)c2cc(C(C)(C)C)on2)c1 ; IC50 = Not Active

More entries:
Form: compound = CC(C)(C)c1cc(C(=O)/C(C#N)=N/Nc2cccc(CO)c2)no1 ; IC50 = Not Active

Form: compound = CC(C)(C)c1cc(NC(=O)c2cccc(Cl)c2)no1 ; IC50 = Not Active

Ref: ChEMBL document CHEMBL3593245
